Numbers sourced from patent US5840684A.

Reported MIC values are given for each entry in this list.
# Tested on: Streptococcus pyogenes C203
# Assay procedure: broth micro-dilution MIC
# Assay type: cell-based
Assay readout: MIC

Molecule	Observed
CNC(CC(C)C)C(=O)NC1C(=O)NC(CC(N)=O)C(=O)NC2C(=O)NC3C(=O)NC(C(=O)NC(C(=O)O)c4cc(O)cc(O)c4-c4cc3ccc4O)C(OC3CC(C)(N)C(O)C(C)O3)c3ccc(c(Cl)c3)Oc3cc2cc(c3OC2OC(CO)C(O)C(O)C2OC2CC(C)(NCc3ccc(O)cc3)C(O)C(C)O2)Oc2ccc(cc2Cl)C1O (stereo not drawn)	≤ 0.06 µg/mL
CNC(CC(C)C)C(=O)NC1C(=O)NC(CC(N)=O)C(=O)NC2C(=O)NC3C(=O)NC(C(=O)NC(C(=O)O)c4cc(O)cc(O)c4-c4cc3ccc4O)C(OC3CC(C)(N)C(O)C(C)O3)c3ccc(c(Cl)c3)Oc3cc2cc(c3OC2OC(CO)C(O)C(O)C2OC2CC(C)(NCc3ccc(N4CCC(C)CC4)cc3)C(O)C(C)O2)Oc2ccc(cc2Cl)C1O (stereo not drawn)	≤ 0.06 µg/mL
CNC(CC(C)C)C(=O)NC1C(=O)NC(CC(N)=O)C(=O)NC2C(=O)NC3C(=O)NC(C(=O)NC(C(=O)O)c4cc(O)cc(O)c4-c4cc3ccc4O)C(OC3CC(C)(N)C(O)C(C)O3)c3ccc(cc3)Oc3cc2cc(c3OC2OC(CO)C(O)C(O)C2OC2CC(C)(NCc3ccc(-c4ccccc4)cc3)C(O)C(C)O2)Oc2ccc(cc2Cl)C1O (stereo not drawn)	≤ 0.06 µg/mL
